// reported protein stability index for each item listed
system: Saccharomyces cerevisiae; assay: protein stability index of tFT-peptide fusion in deletion strain of DOA10 (PSI (0-1 scale)); higher = more stable (slower turnover);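 also: PSI per variant is the weighted mean of its sequencing read distribution over the sorted stability bins, counting only variants with over 10 reads summed across bins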

Provide the documented protein stability index with Saccharomyces cerevisiae as the system for `EVTRLDAIYFRI`
0.701

Likewise for `RSLRVLLWLYFR` ?
0.524

Likewise for `RFLRVLLPLYFR` ?
0.666

Likewise for `AITLPMCPLNLR` ?
0.673

Likewise for `RSLRVLLPLYFRN` ?
0.5

Likewise for `RVTELDAIYFRI` ?
0.64

Likewise for `HLVSLPILLFFR` ?
0.618

Likewise for `LLYMCSVGCWFR` ?
0.571

Likewise for `GCYMCSVGCWFR` ?
0.667

Likewise for `AITLPMCPDLLR` ?
0.677

Likewise for `AITLPMCPLLLRW` ?
0.621

Likewise for `RPTRLDAIYFRI` ?
0.666

Likewise for `CLVSLRILLFFR` ?
0.282

Likewise for `RSGRVLLPLYFR` ?
0.665

Likewise for `RVTRLDAIYKRI` ?
0.698

Likewise for `CLVSLEILLFFR` ?
0.262
